System: Mus musculus
method.description: Effect on pentobarbitol anesthesia (antagonist activity) in mice by intravenous (iv) administration relative to TRH
Format: functional
In this section we review reported Activity values for a set of compounds.
Give only the figure.

- compound: "CN1C(=O)C[C@@H](C(=O)N[C@@H](Cc2c[nH]cn2)C(=O)N2CCC[C@H]2C(N)=O)NC1=O"
  Activity: 28.1
- compound: "CC(C)N1C(=O)C[C@@H](C(=O)N[C@@H](Cc2c[nH]cn2)C(=O)N2CCC[C@H]2C(N)=O)NC1=O"
  Activity: 1.9
- compound: "NC(=O)[C@@H]1CCCN1C(=O)[C@H](Cc1c[nH]cn1)NC(=O)[C@@H]1CC(=O)N(Cc2ccccc2)C(=O)N1"
  Activity: 1.4
- compound: "C=CCN1C(=O)C[C@@H](C(=O)N[C@@H](Cc2c[nH]cn2)C(=O)N2CCC[C@H]2C(N)=O)NC1=O"
  Activity: 4.4
- compound: "NC(=O)[C@@H]1CCCN1C(=O)[C@H](Cc1c[nH]cn1)NC(=O)C1=NC(=O)NC(=O)C1"
  Activity: 1.3

## Task Consider the compound shown here: `NC(=O)[C@@H]1CCCN1C(=O)[C@H](Cc1c[nH]cn1)NC(=O)[C@@H]1CC(=O)N(CC(=O)O)C(=O)N1` What is its recorded Activity?
## Result 0.1

## Task Consider the compound shown here: `CCCCN1C(=O)C[C@@H](C(=O)N[C@@H](Cc2c[nH]cn2)C(=O)N2CCC[C@H]2C(N)=O)NC1=O` What is its recorded Activity?
## Result 0.8

## Task Consider the compound shown here: `Cn1c(=O)cc(C(=O)N[C@@H](Cc2c[nH]cn2)C(=O)N2CCC[C@@H]2C(N)=O)[nH]c1=O` What is its recorded Activity?
## Result 0.4

## Task Consider the compound shown here: NC(=O)[C@@H]1CCCN1C(=O)[C@H](Cc1c[nH]cn1)NC(=O)C1CC(=O)N(CCOCc2ccccc2)C(=O)N1 (mixture of isomers) What is its recorded Activity?
## Result 0.4
